For each of the compounds below, state its kon.
# System Under Test: VEEV Mac (Venezuelan equine encephalitis virus, UniProt P27282)
# Sequence (P27282 1330-1489 limits assumed): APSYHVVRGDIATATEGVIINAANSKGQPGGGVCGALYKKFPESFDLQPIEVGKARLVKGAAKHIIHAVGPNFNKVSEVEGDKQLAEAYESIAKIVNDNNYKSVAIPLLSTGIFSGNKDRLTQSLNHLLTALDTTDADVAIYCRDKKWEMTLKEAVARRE
# Assay Comment: biochemical
# Assay type: binding
Quick reminder: number only, in M⁻¹ s⁻¹, skip the unit.

IN: For VEEV Mac (Venezuelan equine encephalitis virus, UniProt P27282), give the measured kon of the entry Nc1ncnc2c1ncn2[C@@H]1O[C@H](COP(=O)(O)OP(=O)(O)OC[C@H]2O[C@H](Oc3ccc(Cn4cc(COCCOCCOCCOCCNC(=O)CCCC[C@@H]5SC[C@@H]6NC(=O)N[C@@H]65)nn4)cc3)[C@H](O)[C@@H]2O)[C@@H](O)[C@H]1O [biotin-Ph-ADPr]
OUT: 520000

IN: For VEEV Mac (Venezuelan equine encephalitis virus, UniProt P27282), give the measured kon of the entry N#C[C@@]1(c2ccc3c(N)ncnn23)O[C@H](COP(=O)(O)OP(=O)(O)OC[C@H]2O[C@H](n3cc(COCCOCCOCCOCCNC(=O)CCCC[C@@H]4SC[C@@H]5NC(=O)N[C@@H]54)nn3)[C@H](O)[C@@H]2O)[C@@H](O)[C@H]1O [biotin-NDPr]
OUT: 580000

IN: For VEEV Mac (Venezuelan equine encephalitis virus, UniProt P27282), give the measured kon of the entry N#C[C@@]1(c2ccc3c(N)ncnn23)O[C@H](COP(=O)(O)OP(=O)(O)OC[C@H]2O[C@H](Oc3ccc(Cn4cc(COCCOCCOCCOCCNC(=O)CCCC[C@@H]5SC[C@@H]6NC(=O)N[C@@H]65)nn4)cc3)[C@H](O)[C@@H]2O)[C@@H](O)[C@H]1O [biotin-Ph-NDPr]
OUT: 820000

IN: For VEEV Mac (Venezuelan equine encephalitis virus, UniProt P27282), give the measured kon of the entry Nc1ncnc2c1ncn2[C@@H]1O[C@H](COP(=O)(O)OP(=O)(O)OC[C@H]2O[C@H](n3cc(COCCOCCOCCOCCNC(=O)CCCC[C@@H]4SC[C@@H]5NC(=O)N[C@@H]54)nn3)[C@H](O)[C@@H]2O)[C@@H](O)[C@H]1O [biotin-ADPr]
OUT: 140000

----------
# System Under Test: SARS-CoV-2 Mac1 (Severe acute respiratory syndrome coronavirus 2, UniProt P0DTD1)
# Assay Comment: biochemical
# Type: binding
# Experimental Parameters: read-out: kdis
For each of the compounds below, state its koff.
Quick reminder: number only, in s⁻¹, skip the unit.

IN: Provide one value: measured koff of N#C[C@@]1(c2ccc3c(N)ncnn23)O[C@H](COP(=O)(O)OP(=O)(O)OC[C@H]2O[C@H](n3cc(COCCOCCOCCOCCNC(=O)CCCC[C@@H]4SC[C@@H]5NC(=O)N[C@@H]54)nn3)[C@H](O)[C@@H]2O)[C@@H](O)[C@H]1O
OUT: 0.085

IN: Provide one value: measured koff of Nc1ncnc2c1ncn2[C@@H]1O[C@H](COP(=O)(O)OP(=O)(O)OC[C@H]2O[C@H](Oc3ccc(Cn4cc(COCCOCCOCCOCCNC(=O)CCCC[C@@H]5SC[C@@H]6NC(=O)N[C@@H]65)nn4)cc3)[C@H](O)[C@@H]2O)[C@@H](O)[C@H]1O
OUT: 0.11

IN: Provide one value: measured koff of N#C[C@@]1(c2ccc3c(N)ncnn23)O[C@H](COP(=O)(O)OP(=O)(O)OC[C@H]2O[C@H](Oc3ccc(Cn4cc(COCCOCCOCCOCCNC(=O)CCCC[C@@H]5SC[C@@H]6NC(=O)N[C@@H]65)nn4)cc3)[C@H](O)[C@@H]2O)[C@@H](O)[C@H]1O
OUT: 0.0071

IN: Provide one value: measured koff of Nc1ncnc2c1ncn2[C@@H]1O[C@H](COP(=O)(O)OP(=O)(O)OC[C@H]2O[C@H](n3cc(COCCOCCOCCOCCNC(=O)CCCC[C@@H]4SC[C@@H]5NC(=O)N[C@@H]54)nn3)[C@H](O)[C@@H]2O)[C@@H](O)[C@H]1O
OUT: 1

Cited source for all entries: paper PMC11106745
